Hello, the source for this data is patent US20120122727A1, in case you need it.

Test system: primary mouse hepatocytes
TEST_PROTOCOL: Gene expression (Affymetrix Mouse Genome 430 2.0) in primary mouse hepatocytes, true vs false GTX, 24 h and 48 h
EXPERIMENTAL_PARAMETERS: 24 h average; log2, corrected for vehicle control
Here, each record is paired with measured Gene expression data BI660702 (Ell3) data.

Here is how some molecules turned out for Gene expression data BI660702 (Ell3).
1. c1ccc2c(c1)cc1ccc3cccc4ccc2c1c34
1.3867
2. O=c1c(O)c(-c2ccc(O)c(O)c2)oc2cc(O)cc(O)c12
−0.05897
3. Nc1ccccc1C(=O)O
−0.1539
4. Nc1ccc([N+](=O)[O-])cc1N
−0.609
5. CN(C)N=O
2.514

// next item, Gene expression data BI660702 (Ell3) requested
Form field Gene expression data BI660702 (Ell3) for item CC(=O)Nc1ccc2c(c1)Cc1ccccc1-2 on primary mouse hepatocytes: 0.1219
